Measurement kind: melting point

>  <Molecule>
CC(Oc1ccc(F)cc1F)(C(=O)Nc1nccs1)c1ccc(S(C)(=O)=O)cc1 (stereo not drawn)

>  <Measurement kind>
melting point

>  <Measurement>
89 to 90 °C

$$$$
>  <Molecule>
CC(C)(Oc1cccc(C(=O)O)c1)C(=O)Nc1nccs1

>  <Measurement kind>
melting point

>  <Measurement>
166 to 168 °C

$$$$
>  <Molecule>
CC(Oc1ccc(F)cc1F)(C(=O)Nc1nc(CC(=O)O)c(Cl)s1)c1ccc(S(C)(=O)=O)cc1 (stereo not drawn) [Example P1]

>  <Measurement kind>
melting point

>  <Measurement>
109 to 111 °C

$$$$

Look up melting point for the entries below, preserving their order.
1. CCC(C)(Oc1ccc(F)cc1F)C(=O)Nc1nc(CC(=O)O)cs1 (stereo not drawn)
2. CC(C)(Oc1ccc2ccccc2c1)C(=O)Nc1nccs1
3. CSc1ccc(OC(C)(C(=O)Nc2ncc(Cl)s2)c2ccc(S(C)(=O)=O)cc2)cc1 (stereo not drawn)

OUTPUT:
148 to 149 °C
117 to 118 °C
67 to 68 °C

* * *

# Assayed target: purified human recombinant GK (Homo sapiens)
# Sequence (P35557 whole entry): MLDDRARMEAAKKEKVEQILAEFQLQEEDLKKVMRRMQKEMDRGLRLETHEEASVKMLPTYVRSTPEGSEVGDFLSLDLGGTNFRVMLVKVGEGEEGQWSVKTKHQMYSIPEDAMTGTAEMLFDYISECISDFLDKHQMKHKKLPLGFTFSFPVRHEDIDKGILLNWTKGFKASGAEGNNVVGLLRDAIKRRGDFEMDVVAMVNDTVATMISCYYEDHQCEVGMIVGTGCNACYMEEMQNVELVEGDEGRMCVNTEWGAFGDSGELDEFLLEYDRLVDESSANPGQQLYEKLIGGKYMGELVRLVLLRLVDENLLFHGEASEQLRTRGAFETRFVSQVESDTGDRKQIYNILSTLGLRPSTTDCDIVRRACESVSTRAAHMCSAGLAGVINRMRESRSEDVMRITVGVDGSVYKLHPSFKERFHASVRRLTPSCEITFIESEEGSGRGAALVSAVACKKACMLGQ
# Assay notes: Characterization of partial glucokinase activators: dose dependent effect on % ΔS0.5 of glucokinase for glucose
# Assay type: biochemical
# Test parameters: Table 4; partial glucokinase activators
Consider the following compounds; for each one, report its Emax.
A bare number is not enough; add the unit after it.

Here is how some compounds turned out for Emax.
>  <Compound>
CC(C)(Oc1ccc2c(c1)OCO2)C(=O)Nc1nc(CC(=O)Nc2ccc(F)cc2)cs1

>  <Emax>
40%

$$$$
>  <Compound>
CC(Oc1ccc(F)c(F)c1)(C(=O)Nc1ncc(Cl)s1)c1ccc(S(C)(=O)=O)cc1 (stereo not shown)

>  <Emax>
50%

$$$$
>  <Compound>
CCC(C)(Oc1ccc(F)cc1F)C(=O)Nc1ncc(Cl)s1 (stereo not shown)

>  <Emax>
60%

$$$$
>  <Compound>
CC(C)(Oc1ccc(F)cc1F)C(=O)Nc1nc(CC(=O)Nc2ccc(F)cc2)c(Cl)s1

>  <Emax>
50%

$$$$
>  <Compound>
CC(C)(Oc1ccc2c(c1)OCO2)C(=O)Nc1ncc(Cl)s1

>  <Emax>
75%

$$$$

Look up Emax for the entries below, preserving their order.
1. CC(Oc1ccc(F)cc1F)(C(=O)Nc1ncc(Cl)s1)c1ccc(S(C)(=O)=O)cc1 (stereo not shown)
2. CC(Oc1ccc(Cl)cc1)(C(=O)Nc1ncc(Cl)s1)c1ccc(S(C)(=O)=O)cc1 (stereo not shown)

OUTPUT:
1: 75%; 2: 60%
